EC50 reference
System: HCV genotype 1b (Con1) replicon in HUH-7 cells
method_summary: HCV replicon luciferase reporter assay, genotype 1b
Type: cell-based
conditions: Hepatitis C virus, Huh-7, 72 h, HCV genotype 1b replicon luciferase, 3 days incubation, read-out: LE_1b (EC50, range)
attribute_measured: EC50

{"columns": ["compound", "target_entity", "attribute_measured", "value_observed"],
 "data": [
  ["CC[C@@H]1C[C@H](C)CC/C=C\\[C@@H]2C[C@@]2(C(=O)NS(=O)(=O)C2(CF)CC2)NC(=O)[C@@H]2C[C@@H](Oc3ncc(N4CCOCC4)c4ccccc34)CN2C(=O)[C@H]1NC(=O)OC(C)(C)C(C)(F)F [Compound 5447]", "HCV genotype 1b (Con1) replicon in HUH-7 cells", "EC50", "1.01 to 5 nM"],
  ["CC[C@@H]1C[C@H](C)CC/C=C\\[C@@H]2C[C@@]2(C(=O)NS(=O)(=O)C2(C)CC2)NC(=O)[C@@H]2C[C@@H](Oc3cnc4ccc(OC)cc4c3)CN2C(=O)[C@H]1NC(=O)OC(C)(C)C [Compound 4201]", "HCV genotype 1b (Con1) replicon in HUH-7 cells", "EC50", "< 5.46 nM"],
  ["C[C@H]1CC/C=C\\[C@@H]2C[C@@]2(C(=O)NS(=O)(=O)C2(C)CC2)NC(=O)[C@@H]2C[C@@H](Oc3nccc4c5c(ccc34)OCCO5)CN2C(=O)[C@@H](NC(=O)O[C@H](C)C(F)(F)F)[C@H](C)C1 [Compound 5252]", "HCV genotype 1b (Con1) replicon in HUH-7 cells", "EC50", "< 5.46 nM"],
  ["C[C@@H]1CC/C=C\\[C@@H]2C[C@@]2(C(=O)NS(=O)(=O)C2CC2)NC(=O)[C@@H]2C[C@@H](Oc3nc4ccccc4c4ccccc34)CN2C(=O)[C@@H](NC(=O)OC(C)(C)C)[C@H](C)C1 [Compound 5183]", "HCV genotype 1b (Con1) replicon in HUH-7 cells", "EC50", "< 5.46 nM"],
  ["COc1ccc2nc(C(F)(F)F)c(O[C@@H]3C[C@H]4C(=O)N[C@]5(C(=O)NS(=O)(=O)C6(C)CC6)C[C@H]5/C=C\\CC[C@@H](C)C[C@@H](C)[C@H](NC(=O)OC(C)(C)C)C(=O)N4C3)nc2c1 [Compound 4183]", "HCV genotype 1b (Con1) replicon in HUH-7 cells", "EC50", "< 5.46 nM"],
  ["CC[C@@H]1C[C@H](C)CC/C=C\\[C@@H]2C[C@@]2(C(=O)NS(=O)(=O)C2(C)CC2)NC(=O)[C@@H]2C[C@@H](Oc3cnnc4cc(OC)ccc34)CN2C(=O)[C@H]1NC(=O)OC(C)(C)C [Compound 4321]", "HCV genotype 1b (Con1) replicon in HUH-7 cells", "EC50", "5.01 to 35 nM"],
  ["COc1cnc(O[C@@H]2C[C@H]3C(=O)N[C@]4(C(=O)NS(=O)(=O)C5CCC5)C[C@H]4/C=C\\CC[C@@H](C)C[C@@H](C)[C@H](NC(=O)OC(C)(C)C(F)(F)F)C(=O)N3C2)c2ccccc12 [Compound 5354]", "HCV genotype 1b (Con1) replicon in HUH-7 cells", "EC50", "< 5.46 nM"],
  ["CC[C@@H]1C[C@H](C)CC/C=C\\[C@@H]2C[C@@]2(C(=O)NS(=O)(=O)C2CC2)NC(=O)[C@@H]2C[C@@H](Oc3nccc4cc(OC)c(F)cc34)CN2C(=O)[C@H]1NC(=O)OC(C)(C)C(F)(F)F [Compound 4004]", "HCV genotype 1b (Con1) replicon in HUH-7 cells", "EC50", "< 5.46 nM"],
  ["CC[C@@H]1C[C@@H](C)CC/C=C\\[C@@H]2C[C@@]2(C(=O)NS(=O)(=O)C2CC2)NC(=O)[C@@H]2C[C@@H](Oc3nccc4c5c(ccc34)N(C)CCO5)CN2C(=O)[C@H]1NC(=O)NC(C)(C)C [Compound 5315]", "HCV genotype 1b (Con1) replicon in HUH-7 cells", "EC50", "4.82 to 103 nM"],
  ["CC[C@@H]1C[C@H](C)CC/C=C\\[C@@H]2C[C@@]2(C(=O)NS(=O)(=O)C2CC2)NC(=O)[C@@H]2C[C@@H](Oc3nc(OC)cc4ccccc34)CN2C(=O)[C@H]1NC(=O)OC(C)(C)C [Compound 6001]", "HCV genotype 1b (Con1) replicon in HUH-7 cells", "EC50", "< 5.46 nM"],
  ["CCn1nc(O[C@@H]2C[C@H]3C(=O)N[C@]4(C(=O)NS(=O)(=O)C5CC5)C[C@H]4/C=C\\CC[C@@H](C)C[C@@H](C)[C@H](NC(=O)c4ccc(N(C)C)cc4)C(=O)N3C2)c2ccccc2c1=O [Compound 5074]", "HCV genotype 1b (Con1) replicon in HUH-7 cells", "EC50", "4.82 to 103 nM"],
  ["COc1cnc(O[C@@H]2C[C@H]3C(=O)N[C@]4(C(=O)NS(=O)(=O)C5CCC5)C[C@H]4/C=C\\CC[C@@H](C)C[C@@H](C)[C@H](NC(=O)OC(C)(C)C)C(=O)N3C2)c2ccccc12 [Compound 5352]", "HCV genotype 1b (Con1) replicon in HUH-7 cells", "EC50", "< 5.46 nM"],
  ["CC[C@@H]1C[C@H](C)CC/C=C\\[C@@H]2C[C@@]2(C(=O)NS(=O)(=O)C2(C)CC2)NC(=O)[C@@H]2C[C@@H](Oc3ncc(Cl)c4ccc(OC)cc34)CN2C(=O)[C@H]1NC(=O)OC(C)(C)C [Compound 4381]", "HCV genotype 1b (Con1) replicon in HUH-7 cells", "EC50", "0.51 to 1 nM"],
  ["CCOc1cc2cc(OC)ccc2c(O[C@@H]2C[C@H]3C(=O)N[C@]4(C(=O)NS(=O)(=O)C5(C)CC5)C[C@H]4/C=C\\CC[C@@H](C)C[C@@H](C)[C@H](NC(=O)OC(C)(C)C(C)(F)F)C(=O)N3C2)n1 [Compound 3200]", "HCV genotype 1b (Con1) replicon in HUH-7 cells", "EC50", "0.51 to 1 nM"],
  ["COc1ccc2c(O[C@@H]3C[C@H]4C(=O)N[C@]5(C(=O)NS(=O)(=O)C6(F)CC6)C[C@H]5/C=C\\CC[C@@H](C)C[C@@H](C)[C@H](NC(=O)c5ccccc5F)C(=O)N4C3)nccc2c1 [Compound 4029]", "HCV genotype 1b (Con1) replicon in HUH-7 cells", "EC50", "< 5.46 nM"],
  ["COc1ccc2c(O[C@@H]3C[C@H]4C(=O)N[C@]5(C(=O)NS(=O)(=O)C6(C)CC6)C[C@H]5/C=C\\CC[C@@H](C)C[C@@H](C)[C@H](NC(=O)OC5C[C@@H]6C[C@@H]6C5)C(=O)N4C3)nc(-c3ccc(OC(C)C)nc3)cc2c1 (some centres unmarked) [Compound 5229]", "HCV genotype 1b (Con1) replicon in HUH-7 cells", "EC50", "< 5.46 nM"],
  ["CCOc1cc2ccnc(O[C@@H]3C[C@H]4C(=O)N[C@]5(C(=O)NS(=O)(=O)C6CC6)C[C@H]5/C=C\\CC[C@@H](C)C[C@@H](C)[C@H](NC(=O)OC(C)(C)C)C(=O)N4C3)c2cc1F [Compound 5399]", "HCV genotype 1b (Con1) replicon in HUH-7 cells", "EC50", "0.1 to 0.5 nM"]
]}
